- TARGET OR SYSTEM: Melanocyte-stimulating hormone receptor (Homo sapiens)
- Sequence (Q01726 whole entry): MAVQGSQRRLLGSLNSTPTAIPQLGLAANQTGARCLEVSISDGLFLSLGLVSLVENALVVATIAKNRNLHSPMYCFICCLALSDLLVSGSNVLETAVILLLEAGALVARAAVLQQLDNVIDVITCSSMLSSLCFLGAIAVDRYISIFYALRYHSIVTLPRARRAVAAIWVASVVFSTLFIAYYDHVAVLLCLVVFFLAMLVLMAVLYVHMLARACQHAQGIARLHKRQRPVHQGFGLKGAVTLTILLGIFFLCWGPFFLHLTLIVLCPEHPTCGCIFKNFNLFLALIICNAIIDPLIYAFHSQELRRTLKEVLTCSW
- ASSAY NAME: Displacement of [125I]-NAD-alpha-MSH from human recombinant MC1 receptor expressed in BHK570 cells after 90 mins in presence of ovalbumin
Overview of recorded Ki for various compounds
PROPERTY NAME: Ki (nM)

1. CCCC[C@H](NC(=O)[C@H](CO)NC(=O)[C@H](CCCCN=C(N)N)NC(=O)[C@H](CCC(N)=O)NC(=O)[C@H](CO)NC(=O)CNC(C)=O)C(=O)N[C@H]1CCC(=O)NCCCC[C@@H](C(N)=O)NC(=O)[C@H](Cc2c[nH]c3ccccc23)NC(=O)[C@H](CCCN=C(N)N)NC(=O)[C@@H](Cc2ccccc2)NC(=O)[C@@H]2C[C@@H](O)CN2C1=O = 73
2. CCCC[C@H](NC(=O)[C@H](CCCNC(=N)N)NC(=O)[C@H](Cc1cnc[nH]1)NC(=O)[C@H](CCC(N)=O)NC(=O)[C@H](CO)NC(=O)CNC(=O)COCCOCCNC(=O)CCCCCCCCCCCCCCCc1nnn[nH]1)C(=O)N[C@H]1CCC(=O)NCCCC[C@@H](C(N)=O)NC(=O)[C@H](Cc2c[nH]c3ccccc23)NC(=O)[C@H](CCCNC(=N)N)NC(=O)[C@@H](Cc2ccccc2)NC(=O)[C@@H]2C[C@@H](O)CN2C1=O = 44

---

- TARGET OR SYSTEM: Melanocortin receptor 4 (Homo sapiens, UniProt P32245)
- Sequence (P32245 whole entry): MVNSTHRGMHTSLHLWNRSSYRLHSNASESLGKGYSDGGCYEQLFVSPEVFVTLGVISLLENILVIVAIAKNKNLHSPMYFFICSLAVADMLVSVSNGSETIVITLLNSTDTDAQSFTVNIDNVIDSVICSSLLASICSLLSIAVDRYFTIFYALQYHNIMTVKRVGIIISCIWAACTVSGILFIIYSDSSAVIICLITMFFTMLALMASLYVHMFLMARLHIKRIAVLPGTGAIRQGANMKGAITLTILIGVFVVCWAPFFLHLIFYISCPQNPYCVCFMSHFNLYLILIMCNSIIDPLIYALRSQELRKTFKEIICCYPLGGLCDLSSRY
- ASSAY NAME: Displacement of [125I]-NAD-alpha-MSH from MC4 receptor after 2 hrs by gamma counting in presence of ovalbumin
PROPERTY NAME: Ki (nM)

1. CCCC[C@H](NC(=O)[C@H](CCC(=O)O)NC(=O)[C@H](CCC(=O)O)NC(=O)[C@H](CCC(=O)O)NC(=O)[C@H](CCC(=O)O)NC(=O)CNC(=O)COCCOCCNC(=O)CCCCCCCCCCCCCCCc1nnn[nH]1)C(=O)N[C@H]1CCC(=O)NCCCC[C@@H](C(N)=O)NC(=O)[C@H](Cc2c[nH]c3ccccc23)NC(=O)[C@H](CCCNC(=N)N)NC(=O)[C@@H](Cc2ccccc2)NC(=O)[C@@H]2C[C@@H](O)CN2C1=O = 250
2. CCCCCCCCCCCCCCCC(=O)NCC(=O)N[C@@H](CO)C(=O)N[C@@H](CCC(N)=O)C(=O)N[C@@H](CCCCNC(=N)N)C(=O)N[C@@H](CO)C(=O)N[C@@H](CCCC)C(=O)N[C@H]1CCC(=O)NCCCC[C@@H](C(N)=O)NC(=O)[C@H](Cc2c[nH]c3ccccc23)NC(=O)[C@H](CCCNC(=N)N)NC(=O)[C@@H](Cc2ccccc2)NC(=O)[C@@H]2C[C@@H](O)CN2C1=O = 0.37
3. CCCC[C@H](NC(=O)[C@H](CCCNC(=N)N)NC(=O)[C@H](Cc1cnc[nH]1)NC(=O)[C@H](CCC(N)=O)NC(=O)[C@H](CO)NC(=O)CNC(=O)COCCOCCNC(=O)CCCCCCCCCCCCCCCc1nnn[nH]1)C(=O)N[C@H]1CCC(=O)NCCCC[C@@H](C(N)=O)NC(=O)[C@H](Cc2c[nH]c3ccccc23)NC(=O)[C@H](CCCNC(=N)N)NC(=O)[C@@H](Cc2ccccc2)NC(=O)[C@@H]2C[C@@H](O)CN2C1=O = 0.08
4. CCCC[C@H](NC(=O)[C@H](CO)NC(=O)[C@H](Cc1cnc[nH]1)NC(=O)[C@H](CCC(N)=O)NC(=O)[C@H](CO)NC(=O)CNC(C)=O)C(=O)N[C@H]1CCC(=O)NCCCC[C@@H](C(N)=O)NC(=O)[C@H](Cc2c[nH]c3ccccc23)NC(=O)[C@H](CCCNC(=N)N)NC(=O)[C@@H](Cc2ccccc2)NC(=O)[C@@H]2C[C@@H](O)CN2C1=O = 4.6
5. CCCCCCCCCCCCCCCC(=O)NCC(=O)NCC(=O)NCC(=O)NCC(=O)NCC(=O)N[C@@H](CCCC)C(=O)N[C@H]1CCC(=O)NCCCC[C@@H](C(N)=O)NC(=O)[C@H](Cc2c[nH]c3ccccc23)NC(=O)[C@H](CCCNC(=N)N)NC(=O)[C@@H](Cc2ccccc2)NC(=O)[C@@H]2C[C@@H](O)CN2C1=O = 0.33

---

- TARGET OR SYSTEM: Melanocortin receptor 5 (Homo sapiens, UniProt P33032)
- Sequence (P33032 whole entry): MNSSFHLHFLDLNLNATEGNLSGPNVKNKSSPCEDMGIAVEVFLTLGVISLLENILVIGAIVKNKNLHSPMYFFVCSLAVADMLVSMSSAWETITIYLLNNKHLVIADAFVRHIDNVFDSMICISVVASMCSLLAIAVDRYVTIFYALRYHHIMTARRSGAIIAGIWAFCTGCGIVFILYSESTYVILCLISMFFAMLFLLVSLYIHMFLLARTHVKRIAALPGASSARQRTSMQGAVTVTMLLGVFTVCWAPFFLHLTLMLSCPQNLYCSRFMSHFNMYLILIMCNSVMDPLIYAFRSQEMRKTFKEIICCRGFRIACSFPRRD
- ASSAY NAME: Displacement of [125I]-NAD-alpha-MSH from human recombinant MC3 receptor human MC5 expressed in BHK570 cells after 1 hr in presence of ovalbumin
PROPERTY NAME: Ki (nM)

1) CCCC[C@H](NC(=O)[C@H](CO)NC(=O)[C@H](CCCCN=C(N)N)NC(=O)[C@H](CCC(N)=O)NC(=O)[C@H](CO)NC(=O)CNC(C)=O)C(=O)N[C@H]1CCC(=O)NCCCC[C@@H](C(N)=O)NC(=O)[C@H](Cc2c[nH]c3ccccc23)NC(=O)[C@H](CCCN=C(N)N)NC(=O)[C@@H](Cc2ccccc2)NC(=O)[C@@H]2C[C@@H](O)CN2C1=O = 4.3
2) CCCC[C@H](NC(=O)[C@H](CN)NC(=O)[C@H](Cc1cnc[nH]1)NC(=O)[C@H](CCC(N)=O)NC(=O)[C@H](CO)NC(=O)CNC(=O)COCCOCCNC(=O)CCCCCCCCCCCCCCCc1nnn[nH]1)C(=O)N[C@H]1CCC(=O)NCCCC[C@@H](C(N)=O)NC(=O)[C@H](Cc2c[nH]c3ccccc23)NC(=O)[C@H](CCCN=C(N)N)NC(=O)[C@@H](Cc2ccccc2)NC(=O)[C@@H]2C[C@@H](O)CN2C1=O = 10
3) CCCCCCCCCCCCCCCC(=O)NCC(=O)N[C@@H](CO)C(=O)N[C@@H](CCC(N)=O)C(=O)N[C@@H](CCCCNC(=N)N)C(=O)N[C@@H](CO)C(=O)N[C@@H](CCCC)C(=O)N[C@H]1CCC(=O)NCCCC[C@@H](C(N)=O)NC(=O)[C@H](Cc2c[nH]c3ccccc23)NC(=O)[C@H](CCCNC(=N)N)NC(=O)[C@@H](Cc2ccccc2)NC(=O)[C@@H]2C[C@@H](O)CN2C1=O = 0.47
4) CCCC[C@H](NC(=O)[C@H](CNC(C)C)NC(=O)[C@H](Cc1cnc[nH]1)NC(=O)[C@H](CCC(N)=O)NC(=O)[C@H](CO)NC(=O)CNC(=O)COCCOCCNC(=O)CCCCCCCCCCCCCCCc1nnn[nH]1)C(=O)N[C@H]1CCC(=O)NCCCC[C@@H](C(N)=O)NC(=O)[C@H](Cc2c[nH]c3ccccc23)NC(=O)[C@H](CCCNC(=N)N)NC(=O)[C@@H](Cc2ccccc2)NC(=O)[C@@H]2C[C@@H](O)CN2C1=O = 3.4
5) CCCC[C@H](NC(=O)[C@H](CCC(=O)O)NC(=O)[C@H](CCCN=C(N)N)NC(=O)[C@H](CCC(=O)O)NC(=O)[C@H](CCC(=O)O)NC(=O)CNC(=O)COCCOCCNC(=O)CCCCCCCCCCCCCCCc1nnn[nH]1)C(=O)N[C@H]1CCC(=O)NCCCC[C@@H](C(N)=O)NC(=O)[C@H](Cc2c[nH]c3ccccc23)NC(=O)[C@H](CCCN=C(N)N)NC(=O)[C@@H](Cc2ccccc2)NC(=O)[C@@H]2C[C@@H](O)CN2C1=O = 270
6) CCCCCCCCCCCCCCCC(=O)NCC(=O)N[C@@H](CO)C(=O)N[C@@H](CCC(N)=O)C(=O)N[C@@H](Cc1cnc[nH]1)C(=O)N[C@@H](CO)C(=O)N[C@@H](CCCC)C(=O)N[C@H]1CCC(=O)NCCCC[C@@H](C(N)=O)NC(=O)[C@H](Cc2c[nH]c3ccccc23)NC(=O)[C@H](CCCNC(=N)N)NC(=O)[C@@H](Cc2ccccc2)NC(=O)[C@@H]2C[C@@H](O)CN2C1=O = 1.6
7) CCCC[C@H](NC(=O)[C@H](CNC(=O)CN(CC(=O)O)CC(=O)O)NC(=O)[C@H](Cc1cnc[nH]1)NC(=O)[C@H](CCC(N)=O)NC(=O)[C@H](CO)NC(=O)CNC(=O)COCCOCCNC(=O)CCCCCCCCCCCCCCCc1nnn[nH]1)C(=O)N[C@H]1CCC(=O)NCCCC[C@@H](C(N)=O)NC(=O)[C@H](Cc2c[nH]c3ccccc23)NC(=O)[C@H](CCCN=C(N)N)NC(=O)[C@@H](Cc2ccccc2)NC(=O)[C@@H]2C[C@@H](O)CN2C1=O = 13
8) CCCC[C@H](NC(=O)[C@H](CCCNC(=N)N)NC(=O)[C@H](Cc1cnc[nH]1)NC(=O)[C@H](CCC(N)=O)NC(=O)[C@H](CO)NC(=O)CNC(=O)COCCOCCNC(=O)CCCCCCCCCCCCCCCc1nnn[nH]1)C(=O)N[C@H]1CCC(=O)NCCCC[C@@H](C(N)=O)NC(=O)[C@H](Cc2c[nH]c3ccccc23)NC(=O)[C@H](CCCNC(=N)N)NC(=O)[C@@H](Cc2ccccc2)NC(=O)[C@@H]2C[C@@H](O)CN2C1=O = 3
9) CCCC[C@H](NC(=O)[C@H](CO)NC(=O)[C@H](Cc1cnc[nH]1)NC(=O)[C@H](CCC(N)=O)NC(=O)[C@H](CO)NC(=O)CNC(C)=O)C(=O)N[C@H]1CCC(=O)NCCCC[C@@H](C(N)=O)NC(=O)[C@H](Cc2c[nH]c3ccccc23)NC(=O)[C@H](CCCNC(=N)N)NC(=O)[C@@H](Cc2ccccc2)NC(=O)[C@@H]2C[C@@H](O)CN2C1=O = 5.1
10) CCCC[C@H](NC(=O)[C@H](CO)NC(=O)[C@H](Cc1cnc[nH]1)NC(=O)[C@H](CCC(N)=O)NC(=O)[C@H](CO)NC(=O)CNC(=O)COCCOCCNC(=O)CCCCCCCCCCCCCCCc1nnn[nH]1)C(=O)N[C@H]1CCC(=O)NCCCC[C@@H](C(N)=O)NC(=O)[C@H](Cc2c[nH]c3ccccc23)NC(=O)[C@H](CCCNC(=N)N)NC(=O)[C@@H](Cc2ccccc2)NC(=O)[C@@H]2C[C@@H](O)CN2C1=O = 15
